Test system: SF-295 CNS
protocol: NCI tumour cell line growth inhibition, 48 h
Exercise: state measured TGI for each of the molecules provided.

Look up TGI of COc1ccc(N=C(SSC(=Nc2ccc(OC)cc2)c2ccc([N+](=O)[O-])o2)c2ccc([N+](=O)[O-])o2)cc1 and report it.
6.14 µM

Look up TGI of Cc1c(N(Cc2ccccc2)Cc2ccccc2)nc(S(C)(=O)=O)nc1S(C)(=O)=O and report it.
31.5 µM

Look up TGI of FC(F)(Sc1nc2ccccc2[nH]1)c1nc2ccccc2o1 and report it.
> 100 µM

Look up TGI of Cc1nnc(N)s/c1=N/O and report it.
> 100 µM

Look up TGI of O=C(Cn1c(-c2ccccc2)cc2ccccc21)N1CCOCC1 and report it.
> 100 µM

Look up TGI of CC1=CC(=O)N2[C@H](OC[C@@H]2C(C)C)O1 and report it.
> 100 µM

Look up TGI of CC(=O)OCC1OC(OC(C)=O)C(NC#N)C(OC(C)=O)C1OC(C)=O (stereo not drawn) and report it.
> 100 µM

Look up TGI of O=[N+]([O-])c1cccc2c1[nH]c1c(-c3ccccc3)nccc12 and report it.
12.1 µM

Look up TGI of CCn1c(SC)nnc1-c1cc2c([nH]c3ccccc32)c(-c2cccc(O)c2)n1 and report it.
5.23 µM

Look up TGI of CC(=O)OC1C(C)OC(OC2C[C@](O)(C(C)=O)Cc3c(O)c4c(c(O)c32)C(=O)c2ccccc2C4=O)C(F)C1OC(C)=O (stereo partly drawn) and report it.
1.47 µM

Look up TGI of N#Cc1c(N/N=C/c2c(Cl)cccc2Cl)nc(N)nc1N1CCCC1 and report it.
> 100 µM

Look up TGI of Cn1c(=O)c(C#N)c(O)c2cc3ccccc3nc21 and report it.
> 100 µM

Look up TGI of Nc1nc(Nc2cc(F)c(Cl)c(F)c2)cc(=O)[nH]1 and report it.
> 100 µM

Look up TGI of COC(=O)C1=C(C)C(=O)C2(CCCCCC2C(=O)OC)C1 (stereo not drawn) and report it.
> 100 µM

Look up TGI of Nc1nc2c(ccc3ccccc32)[nH]1 and report it.
> 10 µM

Look up TGI of CCOC(=O)C(NC(=O)c1cccc(Cl)c1)(N1CCN(c2cc3c(cc2F)c(=O)c(C(=O)O)cn3CC)CC1)C(F)(F)F (stereo not drawn) and report it.
40 µM

Look up TGI of COC(=O)C1CCC(=S)N1C(C)=O (stereo not drawn) and report it.
> 100 µM

Look up TGI of O=C1Cc2c([nH]c3c(Br)cccc23)-c2ccccc2N1 and report it.
> 100 µM

Look up TGI of C(/Cc1ccc2c(c1)OCO2)=N\NC1=NCCCCN1 and report it.
> 100 µM

Look up TGI of CC(C)=NO.CC(C)=NO.CC(C)=NO.CC(C)=NO.[Ti] and report it.
> 100 µM

Look up TGI of COc1cccc2c(Nc3ccc(C(=O)NCCN4CCNCC4)cc3)cc(-c3ccccc3)nc12 and report it.
> 100 µM

Look up TGI of COC(=O)/C(=C/c1ccc(OC)cc1)c1cc(OC)c(OC)c(OC)c1 and report it.
8.02 µM

Look up TGI of CCOC(=O)C1=C(O)c2c(OC)ccc(OC)c2C(=O)C1=O and report it.
> 100 µM

Look up TGI of COc1ccc(-c2cc(=O)c3cc(OC)c(OC)cc3[nH]2)cc1OC and report it.
> 100 µM

Look up TGI of CCCCCCCCCCCCCCCC(=O)OCC(COP(=O)(O)OCCNC(=O)CCSSc1ccccn1)OC(=O)CCCCCCCCCCCCCCC (stereo not drawn) and report it.
> 100 µM

Look up TGI of CC(C)=C[C@@H]1C[C@H](C)[C@H]2CC[C@H](C)[C@H]3C(=O)C(O)=C(C)C(=O)[C@]123 and report it.
> 100 µM

Look up TGI of CCCCc1c2c(nc3c1CC/C(=C\c1ccccc1)C3=O)CCCC2 and report it.
16 µM

Look up TGI of Brc1ccc2c(c1)-c1ccccc1C1=NCCN12 and report it.
4 µM

Look up TGI of CC1SCCc2nc3ccccc3n21 (stereo not drawn) and report it.
> 100 µM

Look up TGI of OCCn1c(-c2ccncc2)c(-c2ccc(F)cc2)c2ncccc21 and report it.
> 25 µM

Look up TGI of CC(C)C12CCC3(CCC4C(C)(C(=O)O)CCCC4(C)C3C1)C(CN)C2 (stereo not drawn) and report it.
> 100 µM

Look up TGI of Cc1[nH]n(C(=O)c2ccc(Cl)cc2)c(=O)c1/C=C1\C(O)=CC(=O)c2ccccc21 and report it.
> 100 µM

Look up TGI of CC1=C2[C@@H](c3ccccc3)C3C=CC2(C=C3C(F)(F)F)N(C(=O)NC2CCCCC2)C1=O (stereo partly drawn) and report it.
> 100 µM

Look up TGI of COc1ccc(OC)c2c(Nc3ccc(S(=O)(=O)O)c4cc(S(=O)(=O)O)cc(S(=O)(=O)O)c34)cc(C)nc12 and report it.
> 100 µM

Look up TGI of Nc1ccc(N)c2c1C(=O)c1cccc([N+](=O)[O-])c1C2=O and report it.
> 100 µM

Look up TGI of COC(=O)CCSC(=O)Nc1ccccc1Cl and report it.
> 100 µM

Look up TGI of CC(C)c1nc(Cl)c(Cl)c(Cl)n1 and report it.
29 µM

Look up TGI of O=C(O)C12C3C4C1C1C2C3C41I (stereo not drawn) and report it.
> 100 µM

Look up TGI of O=C1OC(c2ccccc2)=N/C1=C\c1ccc(N(CCCl)CCCl)cc1 and report it.
> 100 µM

Look up TGI of C[C@@H](c1ccccc1)N(CC#N)[C@H]1CCC[C@]1(O)/C=C/c1ccc2c(c1)OCO2 and report it.
> 25 µM

Look up TGI of O=C(CCc1ccccc1)NCCc1ccc(O)c(O)c1 and report it.
> 94.9 µM

Look up TGI of O=C1C(=O)c2c(ccc3ccccc23)-c2ccccc21 and report it.
4.6 µM

Look up TGI of NC1=NN(c2ccccc2)C(=O)C1/C(=N\NC(=O)c1cc2ccccc2cc1O)C(=O)Nc1ccc(Cl)cc1 (stereo not drawn) and report it.
> 100 µM
